Values were extracted from patent US20240174622A1.

tested on: LNCaP tumor-transplanted mouse; test: Internal radioactivity distribution using LNCaP tumor-transplanted mouse; assay type: in vivo; settings: 4 h after administration
This listing pairs compounds with measured Liver.
Write the numeric value and follow it with the unit.

Below, each entry is followed by its recorded Liver result.
| COMPOUND | TARGET | RESULT |
| --- | --- | --- |
| O=C([O-])CN(Cc1cccc(C(=O)[O-])n1)C[C@H](Cc1ccc(NC(=O)[C@H](CCCCNC(=O)CCC(=O)NCCCC[C@H](NC(=O)N[C@@H](CCC(=O)O)C(=O)O)C(=O)O)NC(=O)COCCOCCOCC(=O)N[C@@H](CCCCNC(=O)CCCc2ccc(I)cc2)C(=O)O)cc1)N(CC(=O)[O-])Cc1cccc(C(=O)[O-])n1.[111In+3] [[^111In]In-Octapa-3] | LNCaP tumor-transplanted mouse | 3.36 ± 0.39 % ID/g |
| O=C([O-])CN1CCN(C(CCC(=O)NCCCC[C@H](NC(=O)N[C@@H](CCC(=O)O)C(=O)O)C(=O)O)C(=O)[O-])CCN(CC(=O)[O-])CCN(C(CCC(=O)N[C@@H](CCCCNC(=O)CCCc2ccc(I)cc2)C(=O)O)C(=O)[O-])CC1.[111In+3] (stereo partly drawn) [[^111In]In-PSMA-DA1] | LNCaP tumor-transplanted mouse | 4.20 ± 1.51 % ID/g |

Next item in the queue.
Answer with the recorded Liver of O=C([O-])CN1CCN(C(CCC(=O)NCCCC[C@H](NC(=O)N[C@@H](CCC(=O)O)C(=O)O)C(=O)O)C(=O)[O-])CCN(CC(=O)[O-])CCN(C(CCC(=O)Nc2ccccc2)C(=O)[O-])CC1.[111In+3] (stereo partly drawn) [[^111In]In-PSMA-DB, reference compound] only.
0.95 ± 0.05 % ID/g

---

test system: LNCaP tumor-transplanted mouse; assay: Internal radioactivity distribution using LNCaP tumor-transplanted mouse; assay type: in vivo; conditions: 4 h after administration
Think of 20 % ID/g as a floor: if Blood stands on it or above, it is met; beneath it, not met.

| COMPOUND | GROUP |
| --- | --- |
| O=C([O-])CN(CCN(CCc1ccc(NC(=O)[C@H](CCCCNC(=O)CCC(=O)NCCCC[C@H](NC(=O)N[C@@H](CCC(=O)O)C(=O)O)C(=O)O)NC(=O)CCCc2ccc(I)cc2)cc1)CCN(CC(=O)[O-])Cc1cccc(C(=O)[O-])n1)Cc1cccc(C(=O)[O-])n1.[111In+3] [[^111In]In-Neunpa-2] | not met |
| O=C([O-])CN(CCN(CCc1ccc(NC(=O)CCCCCNC(=O)CCC(=O)NCCCC[C@H](NC(=O)N[C@@H](CCC(=O)O)C(=O)O)C(=O)O)cc1)CCN(CC(=O)[O-])Cc1cccc(C(=O)[O-])n1)Cc1cccc(C(=O)[O-])n1.[111In+3] [[^111In]In-Neunpa-1, reference compound] | not met |
| O=C([O-])CN1CCN(C(CCC(=O)NCCCC[C@H](NC(=O)N[C@@H](CCC(=O)O)C(=O)O)C(=O)O)C(=O)[O-])CCN(CC(=O)[O-])CCN(C(CCC(=O)N[C@@H](CCCCNC(=O)CCCc2ccc(I)cc2)C(=O)O)C(=O)[O-])CC1.[111In+3] (some centres unmarked) [[^111In]In-PSMA-DA1] | met |
| O=C([O-])CN1CCN(C(CCC(=O)NCCCC[C@H](NC(=O)N[C@@H](CCC(=O)O)C(=O)O)C(=O)O)C(=O)[O-])CCN(CC(=O)[O-])CCN(C(CCC(=O)Nc2ccccc2)C(=O)[O-])CC1.[111In+3] (some centres unmarked) [[^111In]In-PSMA-DB, reference compound] | not met |
| O=C([O-])CN(Cc1cccc(C(=O)[O-])n1)C[C@H](Cc1ccc(NC(=O)CCCCCNC(=O)CCC(=O)NCCCC[C@H](NC(=O)N[C@@H](CCC(=O)O)C(=O)O)C(=O)O)cc1)N(CC(=O)[O-])Cc1cccc(C(=O)[O-])n1.[111In+3] [[^111In]In-Octapa-1, reference compound] | not met |
| O=C([O-])CN(Cc1cccc(C(=O)[O-])n1)C[C@H](Cc1ccc(NC(=O)[C@H](CCCCNC(=O)CCC(=O)NCCCC[C@H](NC(=O)N[C@@H](CCC(=O)O)C(=O)O)C(=O)O)NC(=O)COCCOCCOCC(=O)N[C@@H](CCCCNC(=O)CCCc2ccc(I)cc2)C(=O)O)cc1)N(CC(=O)[O-])Cc1cccc(C(=O)[O-])n1.[111In+3] [[^111In]In-Octapa-3] | not met |
| O=C([O-])CN(Cc1cccc(C(=O)[O-])n1)C[C@H](Cc1ccc(NC(=O)[C@H](CCCCNC(=O)CCC(=O)NCCCC[C@H](NC(=O)N[C@@H](CCC(=O)O)C(=O)O)C(=O)O)NC(=O)CCCc2ccc(I)cc2)cc1)N(CC(=O)[O-])Cc1cccc(C(=O)[O-])n1.[111In+3] [[^111In]In-Octapa-2] | not met |

Could you now look at the following compound, please?
Does Blood meet or surpass 20 % ID/g for O=C(O)CC[C@H](NC(=O)N[C@@H](CCCCNC(=O)[C@H](Cc1ccc2ccccc2c1)NC(=O)[C@H]1CC[C@H](CNC(=O)CCC(C(=O)O)N2CCN(CC(=O)O)CCN(C(CCC(=O)N[C@@H](CCCCNC(=O)CCCc3ccc(I)cc3)C(=O)O)C(=O)O)CCN(CC(=O)O)CC2)CC1)C(=O)O)C(=O)O (some centres unmarked) [[^111In]In-PSMA-NAT-DA1, metal not drawn] ?
met

---

This listing pairs compounds with measured Stomach (% ID).
system: LNCaP tumor-transplanted mouse; test: Internal radioactivity distribution using LNCaP tumor-transplanted mouse; assay type: in vivo; conditions: 48 h after administration

Below, each entry is followed by its recorded Stomach (% ID) result.
| COMPOUND | MEASURED QUANTITY | RESULT |
| --- | --- | --- |
| O=C([O-])CN(Cc1cccc(C(=O)[O-])n1)C[C@H](Cc1ccc(NC(=O)[C@H](CCCCNC(=O)CCC(=O)NCCCC[C@H](NC(=O)N[C@@H](CCC(=O)O)C(=O)O)C(=O)O)NC(=O)COCCOCCOCC(=O)N[C@@H](CCCCNC(=O)CCCc2ccc(I)cc2)C(=O)O)cc1)N(CC(=O)[O-])Cc1cccc(C(=O)[O-])n1.[111In+3] [[^111In]In-Octapa-3] | Stomach (% ID) | 0.13 ± 0.04 % ID |
| O=C(O)CC[C@H](NC(=O)N[C@@H](CCCCNC(=O)[C@H](Cc1ccc2ccccc2c1)NC(=O)[C@H]1CC[C@H](CNC(=O)CCC(C(=O)O)N2CCN(CC(=O)O)CCN(C(CCC(=O)N[C@@H](CCCCNC(=O)CCCc3ccc(I)cc3)C(=O)O)C(=O)O)CCN(CC(=O)O)CC2)CC1)C(=O)O)C(=O)O (stereo partly drawn) [[^111In]In-PSMA-NAT-DA1, metal not drawn] | Stomach (% ID) | 0.44 ± 0.09 % ID |

Answer with the recorded Stomach (% ID) of O=C([O-])CN1CCN(C(CCC(=O)NCCCC[C@H](NC(=O)N[C@@H](CCC(=O)O)C(=O)O)C(=O)O)C(=O)[O-])CCN(CC(=O)[O-])CCN(C(CCC(=O)N[C@@H](CCCCNC(=O)CCCc2ccc(I)cc2)C(=O)O)C(=O)[O-])CC1.[111In+3] (stereo partly drawn) [[^111In]In-PSMA-DA1] only.
0.25 ± 0.05 % ID

---

tested on: LNCaP tumor-transplanted mouse; experiment: Internal radioactivity distribution using LNCaP tumor-transplanted mouse; format: in vivo; details: 24 h after administration
MEASURED QUANTITY: Heart
Write the numeric value and follow it with the unit.

Answer with the recorded Heart of O=C([O-])CN1CCN(C(CCC(=O)NCCC(=O)N2Cc3ccccc3-c3c(nnn3CCOCCOCCOCCOCCC(=O)NCCCC[C@H](NC(=O)N[C@@H](CCC(=O)O)C(=O)O)C(=O)O)-c3ccccc32)C(=O)[O-])CCN(CC(=O)[O-])CCN(C(CCC(=O)N[C@@H](CCCCNC(=O)CCCc2ccc(I)cc2)C(=O)O)C(=O)[O-])CC1.[111In+3] (some centres unmarked) [[^111In]In-PtDA] only.
3.95 ± 0.87 % ID/g

Answer with the recorded Heart of O=C([O-])CN(CCN(CCc1ccc(NC(=O)CCCCCNC(=O)CCC(=O)NCCCC[C@H](NC(=O)N[C@@H](CCC(=O)O)C(=O)O)C(=O)O)cc1)CCN(CC(=O)[O-])Cc1cccc(C(=O)[O-])n1)Cc1cccc(C(=O)[O-])n1.[111In+3] [[^111In]In-Neunpa-1, reference compound] only.
0.21 ± 0.01 % ID/g
